tested on: Mus musculus; assay: Antineuropathic pain activity in mouse chronic constriction injury model of neuropathic pain assessed as reversal of reduction in paw withdrawal threshold of ipsilateral hind paw at 3 umol/kg, po dosed on day 7 after sciatic nerve ligation and measured at 1 hrs; format: functional
Listed here: items and their measured Emax at 3 µmol/kg.
Lab book: enter the figure in %, no units written.

Sample records with Emax at 3 µmol/kg:
CCNc1nc(-n2cc(-c3ccc(Cl)s3)nn2)nc2c1ncn2[C@H]1[C@H](O)[C@H](O)[C@]2(C(=O)NC)C[C@H]12    84.9
CNC(=O)[C@@]12C[C@@H]1[C@@H](n1cnc3c(NC)nc(-n4cc(-c5ccccn5)nn4)nc31)[C@H](O)[C@@H]2O    60.9
CNC(=O)[C@@]12C[C@@H]1[C@@H](n1cnc3c(NC)nc(-n4cc(-c5ncccn5)nn4)nc31)[C@H](O)[C@@H]2O    92.7
CNC(=O)[C@@]12C[C@@H]1[C@@H](n1cnc3c(NC)nc(-n4cc(-c5ccc(Br)s5)nn4)nc31)[C@H](O)[C@@H]2O    69.1
CNC(=O)[C@@]12C[C@@H]1[C@@H](n1cnc3c(NCCc4ccccc4)nc(-n4cc(-c5ccc(Cl)s5)nn4)nc31)[C@H](O)[C@@H]2O    94.1
CNC(=O)[C@@]12C[C@@H]1[C@@H](n1cnc3c(NC)nc(-n4cc(-c5ccccc5Cl)nn4)nc31)[C@H](O)[C@@H]2O    69.1
CNC(=O)[C@@]12C[C@@H]1[C@@H](n1cnc3c(NC)nc(-n4cc(-c5ccco5)nn4)nc31)[C@H](O)[C@@H]2O    65.3
CNC(=O)[C@@]12C[C@@H]1[C@@H](n1cnc3c(NC)nc(-n4cc(-c5ccccc5)nn4)nc31)[C@H](O)[C@@H]2O    77.4

Problem: Complete the entry with Emax at 3 µmol/kg for "CNC(=O)[C@@]12C[C@@H]1[C@@H](n1cnc3c(NCc4cccc(Cl)c4)nc(-n4cc(-c5ccc(Cl)s5)nn4)nc31)[C@H](O)[C@@H]2O"
Result: 94.7

---

molecular target: Adenosine receptor A3 (Homo sapiens, UniProt P0DMS8)
Sequence (P0DMS8 whole entry): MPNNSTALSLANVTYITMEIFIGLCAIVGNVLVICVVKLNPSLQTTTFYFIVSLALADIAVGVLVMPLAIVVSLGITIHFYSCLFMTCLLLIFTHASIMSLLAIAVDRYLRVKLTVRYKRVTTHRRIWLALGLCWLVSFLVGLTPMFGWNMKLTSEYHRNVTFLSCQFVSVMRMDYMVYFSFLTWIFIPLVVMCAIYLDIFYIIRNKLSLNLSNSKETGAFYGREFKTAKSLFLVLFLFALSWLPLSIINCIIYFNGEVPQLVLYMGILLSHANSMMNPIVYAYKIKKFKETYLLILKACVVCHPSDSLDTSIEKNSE
# strict inequality: Ki < 1 nM yields met, everything else yields not met

Study these solved cases before continuing.
CNC(=O)[C@@]12C[C@@H]1[C@@H](n1cnc3c(NC)nc(-n4cc(-c5cnccn5)nn4)nc31)[C@H](O)[C@@H]2O    not met
CNC(=O)[C@@]12C[C@@H]1[C@@H](n1cnc3c(NC)nc(-n4cc(-c5cc6ccccc6o5)nn4)nc31)[C@H](O)[C@@H]2O    not met
CNC(=O)[C@@]12C[C@@H]1[C@@H](n1cnc3c(NC)nc(-n4cc(-c5ccccc5Cl)nn4)nc31)[C@H](O)[C@@H]2O    met
CNC(=O)[C@@]12C[C@@H]1[C@@H](n1cnc3c(NCCc4ccccc4)nc(N=[N+]=[N-])nc31)[C@H](O)[C@@H]2O    met
CNC(=O)[C@@]12C[C@@H]1[C@@H](n1cnc3c(NC)nc(-n4cc(-c5ncccn5)nn4)nc31)[C@H](O)[C@@H]2O    not met
CNC(=O)[C@@]12C[C@@H]1[C@@H](n1cnc3c(NCc4cccc(Cl)c4)nc(-n4cc(-c5ccc(Cl)s5)nn4)nc31)[C@H](O)[C@@H]2O    not met
CNC(=O)[C@@]12C[C@@H]1[C@@H](n1cnc3c(NC4CCC4)nc(N=[N+]=[N-])nc31)[C@H](O)[C@@H]2O    met
CNC(=O)[C@@]12C[C@@H]1[C@@H](n1cnc3c(NC)nc(-n4cc(-c5ccc(F)c(F)c5)nn4)nc31)[C@H](O)[C@@H]2O    not met

Problem: Determine if "CNC(=O)[C@@]12C[C@@H]1[C@@H](n1cnc3c(NC)nc(-n4cc(-c5ccc(Cl)s5)nn4)nc31)[C@H](O)[C@@H]2O" shows Ki strictly lower than 1 nM.
Result: met

Problem: Regarding "CNC(=O)[C@@]12C[C@@H]1[C@@H](n1cnc3c(NC)nc(-n4cc(-c5ccccn5)nn4)nc31)[C@H](O)[C@@H]2O" , kindly confirm whether its Ki is beneath 1 nM.
Result: not met
